- study system: human factor Xa (Homo sapiens, UniProt P00742)
- Sequence (P00742 235-488 limits assumed): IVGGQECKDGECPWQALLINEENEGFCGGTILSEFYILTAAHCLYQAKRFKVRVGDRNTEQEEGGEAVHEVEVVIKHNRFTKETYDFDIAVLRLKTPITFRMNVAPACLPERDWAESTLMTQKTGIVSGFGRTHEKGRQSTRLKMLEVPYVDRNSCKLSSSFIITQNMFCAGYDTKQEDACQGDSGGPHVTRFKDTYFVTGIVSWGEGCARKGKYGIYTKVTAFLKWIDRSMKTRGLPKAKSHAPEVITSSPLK
- Sequence (P00742 41-179 partner limits assumed): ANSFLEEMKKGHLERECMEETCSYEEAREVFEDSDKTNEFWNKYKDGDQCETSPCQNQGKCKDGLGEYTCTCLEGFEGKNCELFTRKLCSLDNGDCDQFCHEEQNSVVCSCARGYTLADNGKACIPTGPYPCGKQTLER
- assay method text: Factor Xa assay (chromogenic, substrate S-2765)
- Format: biochemical
- protocol conditions: read-out: Ki(FXa)
Under this convention, 1 (yes) denotes Ki strictly below 10 nM and 0 (no) denotes Ki at or above 10 nM.

compound: CC(C)N1CCC(NC(=O)c2cc3cccc(NC(=O)C(C)(C)C)c3n2Cc2cc(-c3ccc(Cl)s3)on2)CC1
label: 0 (no)
--
compound: COc1cccc(Cn2c(C(=O)NC3CCN(C(C)C)CC3)cc3cc(C)ccc32)c1
label: 0 (no)
--
compound: CCN1CC[C@@H](NC(=O)c2cc3ccccc3n2Cc2cc(-c3ccc(Cl)s3)on2)C1
label: 0 (no)
--
compound: CC(C)N1CCC(NC(=O)c2cc3cc(C(=O)O)ccc3n2Cc2nnc(-c3ccc(Cl)s3)s2)CC1
label: 1 (yes)
--
compound: O=C(NCC1CC(c2ccncc2)=NO1)c1cc2ccccc2n1Cc1cc(-c2ccc(Cl)s2)on1 (stereo not shown)
label: 0 (no)
--
compound: CC(C)N1CCC(NC(=O)c2cc3c(C(=O)O)cccc3n2Cc2cc(-c3ccc(Cl)s3)on2)CC1
label: 1 (yes)
--
compound: CC(C)N1CCC(NC(=O)c2cc3cc(Cl)cc(Cl)c3n2Cc2cc(-c3ccc(Cl)s3)on2)CC1
label: 0 (no)

* * *

- study system: human factor Xa (Homo sapiens, UniProt P00742)
- assay method text: Factor Xa assay (chromogenic, substrate S-2765)
- Format: biochemical
- protocol conditions: read-out: Ki(FXa)

given smiles: COC(=O)c1ccc2c(c1)cc(C(=O)NC1CCN(C(C)C)CC1)n2Cc1cc(-c2ccc(Cl)s2)on1
Ki (nM): 5

given smiles: Cn1ccnc1CN1CCC(NC(=O)c2cc3ccccc3n2Cc2cc(-c3ccc(Cl)s3)on2)CC1
Ki (nM): 404

given smiles: O=C(NC1CCN(CC(F)(F)F)CC1)c1cc2ccccc2n1Cc1cc(-c2ccc(Cl)s2)on1
Ki (nM): 1030

given smiles: Cc1cccc2cc(C(=O)N3CCC(Nc4ccncc4)CC3)n(Cc3cc(-c4ccc(Cl)s4)on3)c12
Ki (nM): 11

given smiles: O=C(Cn1c(C(=O)N2CCC(Nc3ccncc3)CC2)cc2ccccc21)Nc1ccc(Cl)cc1
Ki (nM): 223

given smiles: COc1ccc2c(c1)cc(C(=O)NC1CCN(C(C)C)CC1)n2Cc1cc(-c2ccc(Cl)s2)on1
Ki (nM): 13

given smiles: CC(C)N1CCC(NC(=O)c2cc3c(F)cc(F)cc3n2Cc2cc(-c3ccc(Cl)s3)on2)CC1
Ki (nM): 16

* * *

- study system: human factor Xa (Homo sapiens, UniProt P00742)
- assay method text: Factor Xa assay (chromogenic, substrate S-2765)
- Assay type: biochemical
- protocol conditions: read-out: Ki(FXa)
measurement label: log10(Ki) (log10 of the value in nM)

molecule: COc1ccc(OC)c2c1cc(C(=O)N(CC(=O)O)C1CCN(C(C)C)CC1)n2Cc1cc(-c2ccc(Cl)s2)on1
result number: 1.30

molecule: COc1ccc(OC)c2c1cc(C(=O)NC1CCN(C(C)C)CC1)n2Cc1cc(-c2ccc(Cl)s2)on1
result number: 0.74

molecule: COc1cccc(Cn2c(C(=O)NC3CCN(C(C)C)CC3)cc3cc([N+](=O)[O-])ccc32)c1
result number: 2.44

molecule: CC(C)N1CCC(N(CC(=O)O)C(=O)c2cc3c(Cl)ccc(Cl)c3n2Cc2cc(-c3ccc(Cl)s3)on2)CC1
result number: 1.74

molecule: COCCN1CCC(NC(=O)c2cc3ccccc3n2Cc2cc(-c3ccc(Cl)s3)on2)CC1
result number: 2.14

molecule: COc1cccc(Cn2c(C(=O)NC3CCN(C(C)C)CC3)cc3cc(OC)ccc32)c1
result number: 2.22

molecule: CC(OC(=O)c1cccc2c1cc(C(=O)NC1CCN(C(C)C)CC1)n2Cc1cc(-c2ccc(Cl)s2)on1)OC(=O)C(C)(C)C (stereo not drawn)
result number: 1.23

molecule: CCN1CC[C@H](NC(=O)c2cc3ccccc3n2Cc2cc(-c3ccc(Cl)s3)on2)C1
result number: 2.24

molecule: CC(C)N1CCC(NC(=O)c2cc3cc(F)cc(F)c3n2CC(=O)Nc2ccc(Cl)cn2)CC1
result number: 0.00

molecule: CC(C)N1CCN(NC(=O)c2cc3ccccc3n2Cc2cc(-c3ccc(Cl)s3)on2)CC1
result number: 1.30

molecule: CC(C)N1CCC(NC(=O)c2cc3cc(F)ccc3n2CC(=O)Nc2ccc(Cl)cn2)CC1
result number: 2.85

molecule: CC(C)N1CCC(NC(=O)c2cc3cc(C(=O)O)ccc3n2CC(=O)Nc2ccc(Cl)cc2)CC1
result number: 0.60

molecule: CC(C)N1CCC(NC(=O)c2cc3ccccc3n2Cc2cc(Cl)cc(Cl)c2)CC1
result number: 2.84

molecule: O=C(c1cc2cc([N+](=O)[O-])ccc2n1Cc1cc(-c2ccc(Cl)s2)on1)N1CCC(Nc2ccncc2)CC1
result number: 1.57

molecule: O=C(Cn1c(C(=O)NCC2CCN(c3ccncc3)CC2)cc2ccccc21)Nc1ccc(Cl)cc1
result number: 2.36

* * *

- study system: human factor Xa (Homo sapiens, UniProt P00742)
- assay method text: Factor Xa assay (chromogenic, substrate S-2765);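 further: purified enzyme preincubated with inhibitor for 10 min before substrate addition, final reaction volume 100 µl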
- Format: biochemical
- protocol conditions: read-out: Ki(FXa)
pKi: −log10 of the molar value.

compound: CC(C)N1CCC(NC(=O)c2cc3cc([N+](=O)[O-])cc([N+](=O)[O-])c3n2Cc2cc(-c3ccc(Cl)s3)on2)CC1 [Example 27]
pKi: 9.70

compound: CC(C)N1CCC(NC(=O)c2cc3c(OCc4ccccc4)cccc3n2Cc2cc(-c3ccc(Cl)s3)on2)CC1 [Example 19]
pKi: 7.30

compound: COc1ccc2cc(C(=O)NC3CCN(C(C)C)CC3)n(Cc3cc(-c4ccc(Cl)s4)on3)c2c1 [Example 7]
pKi: 8.40

compound: Cc1cccc2cc(C(=O)N3CCC(NC(C)C)CC3)n(Cc3cc(-c4ccc(Cl)s4)on3)c12 [Example 35]
pKi: 6.30

compound: NC(=O)CN1CCC(NC(=O)c2cc3ccccc3n2Cc2cc(-c3ccc(Cl)s3)on2)CC1 [Example 262]
pKi: 6.60

compound: CC(C)N1CCC(NC(=O)c2cc3c(Br)cccc3n2Cc2cc(-c3ccc(Cl)s3)on2)CC1 [Example 173]
pKi: 7.82

compound: Cc1ccc(C)c2c1cc(C(=O)N(CC(=O)O)C1CCN(C(C)C)CC1)n2Cc1cc(-c2ccc(Cl)s2)on1 [Example 230]
pKi: 7.92

compound: CC(C)N1CCC(NC(=O)c2cc3cc(S(C)(=O)=O)ccc3n2CC(=O)Nc2ccc(Cl)cn2)CC1 [Example 214]
pKi: 7.28

compound: CC(C)N1CCC(N(CC(=O)O)C(=O)c2cc3cc(Cl)cc(Cl)c3n2Cc2cc(-c3ccc(Cl)s3)on2)CC1 [Example 233]
pKi: 7.13

compound: COc1cc2cc(C(=O)NC3CCN(C(C)C)CC3)n(Cc3cc(-c4ccc(Cl)s4)on3)c2cc1OC [Example 10]
pKi: 6.74

compound: COc1cccc2c1cc(C(=O)NC1CCN(C(C)C)CC1)n2CCc1ccc(Cl)cc1 [Example 172]
pKi: 7.39

compound: CC(C)N1CCC(NC(=O)c2cc3cc(S(C)(=O)=O)ccc3n2CC(=O)Nc2ccc(Cl)cc2)CC1 [Example 215]
pKi: 7.64

compound: CCOC(=O)c1ccc2c(c1)cc(C(=O)NC1CCN(C(C)C)CC1)n2Cc1cc(-c2ccc(Cl)s2)on1 [Example 238]
pKi: 7.96

compound: CCOC(=O)OC(C)OC(=O)c1cccc2c1cc(C(=O)NC1CCN(C(C)C)CC1)n2Cc1cc(-c2ccc(Cl)s2)on1 (stereo not drawn) [Example 269]
pKi: 8.15

compound: CCOC(=O)CN(C(=O)c1cc2c(Cl)ccc(Cl)c2n1Cc1cc(-c2ccc(Cl)s2)on1)C1CCN(C(C)C)CC1 [Example 226]
pKi: 7.08

* * *

- study system: human factor Xa (Homo sapiens)
- assay method text: Factor Xa assay (chromogenic, substrate S-2765)
- Assay type: biochemical
- protocol conditions: read-out: Ki(FXa)
Listed here are molecules together with their documented Ki.
measurement label: Ki (nM)

given smiles: CN1CCN(NC(=O)c2cc3ccccc3n2Cc2cc(-c3ccc(Cl)s3)on2)CC1
unit of measurement: nM
result number: 76
--
given smiles: O=C(c1cc2ccccc2n1Cc1cc(-c2ccc(Cl)s2)on1)N1CCN(Cc2ccncc2)CC1
unit of measurement: nM
result number: 504
--
given smiles: O=C(NC1CCN(Cc2ncc[nH]2)CC1)c1cc2ccccc2n1Cc1cc(-c2ccc(Cl)s2)on1
unit of measurement: nM
result number: 559
--
given smiles: CS(=O)(=O)N1CCC(NC(=O)c2cc3ccccc3n2Cc2cc(-c3ccc(Cl)s3)on2)CC1
unit of measurement: nM
result number: 136
